# Target Under Test: GABA-A receptor; alpha-5/beta-3/gamma-2 (Homo sapiens) (UniProt P18507+P28472+P31644)
# Test Method Notes: Percent change in electrophysiological response in Xenopus oocytes expressing Alpha-5-beta-3-gamma-2 GABA-A receptor
# Format: functional, cell-based
# Measurement Parameters: Oocyte
Where Efficacy equals or exceeds -30%, the correct label is true (1); where it does not, the label is false (0).

{"Compound": "Cc1noc(-c2nnc3c4c(c(OCc5ccccc5Br)nn23)C2CCC4CC2)n1", "Class Assignment": "false (0)"}
{"Compound": "Cc1cccc(COc2nn3c(-c4ccccc4)nnc3c3ccccc23)n1", "Class Assignment": "true (1)"}
{"Compound": "Cc1cccc(COc2nn3c(-c4nc(C)no4)nnc3c3c2C2CCC3CC2)n1", "Class Assignment": "false (0)"}
{"Compound": "Cc1cccc(COc2nn3c(-c4cnccn4)nnc3c3c2C2CCC3CC2)n1", "Class Assignment": "true (1)"}
{"Compound": "Cc1cccc(COc2nn3c(-c4cc(C)on4)nnc3c3c2C2CCC3CC2)n1", "Class Assignment": "true (1)"}
{"Compound": "Cc1noc(-c2nnc3c4c(c(OCc5ccccn5)nn23)C2CCC4CC2)n1", "Class Assignment": "false (0)"}
{"Compound": "Cc1noc(-c2nnc3c4c(c(OCc5ccc(C)c(C)n5)nn23)C2CCC4CC2)n1", "Class Assignment": "true (1)"}
{"Compound": "Cc1cccc(COc2nn3c(-c4cc(C)on4)nnc3c3c2C2CCC3C2)n1 (stereo not drawn)", "Class Assignment": "true (1)"}
{"Compound": "Cc1cccc(COc2nn3c(-c4cc(C)on4)nnc3c3ccccc23)n1", "Class Assignment": "true (1)"}
{"Compound": "CCOC(=O)c1ncn2c1[C@@H]1CCCN1C(=O)c1cc(OC)ccc1-2", "Class Assignment": "true (1)"}
{"Compound": "Cc1cc(-c2nnc3c4ccccc4c(OCc4ccccn4)nn23)no1", "Class Assignment": "false (0)"}
{"Compound": "Cc1cccc(COc2nn3c(-c4ccoc4)nnc3c3c2C2CCC3CC2)n1", "Class Assignment": "true (1)"}
{"Compound": "Cc1noc(-c2nnc3c4c(c(OCc5ccccc5C#N)nn23)C2CCC4CC2)n1", "Class Assignment": "false (0)"}
{"Compound": "Cc1cc(-c2nnc3c4c(c(OCc5ccccn5)nn23)CCCC4)no1", "Class Assignment": "true (1)"}
{"Compound": "Cc1cc(-c2nnc3c4c(c(OCc5ccccn5)nn23)C2CCC4C2)no1 (stereo not drawn)", "Class Assignment": "true (1)"}
{"Compound": "Cc1cccc(COc2nn3c(-c4ccsc4)nnc3c3c2C2CCC3CC2)n1", "Class Assignment": "true (1)"}
{"Compound": "Cc1cccc(COc2nn3c(-c4ccccc4)nnc3c3c2C2CCC3CC2)n1", "Class Assignment": "true (1)"}
{"Compound": "Cc1noc(-c2nnc3c4c(c(OCc5ncc[nH]5)nn23)C2CCC4CC2)n1", "Class Assignment": "true (1)"}
